Reference for the values: the Deep4Chem optical property database

- measurementNotes: photoluminescence quantum yield (fraction); solvent given as SMILES
- conditionDescription: in ClC(Cl)Cl
measureName: photoluminescence quantum yield

Solved entries (count: 5):
[
  {
    "molecule": "CC(=C(C#Cc1ccccc1)C#Cc1ccccc1)c1ccc(C(C)=C(C#Cc2ccccc2)C#Cc2ccccc2)cc1",
    "photoluminescence quantum yield": 0.03
  },
  {
    "molecule": "COc1cc(OC)c2c(c1)c1cc3oc(=O)cc(C)c3cc1c1cc(OC)cc(OC)c12",
    "photoluminescence quantum yield": 0.1
  },
  {
    "molecule": "c1ccc(N(c2ccccc2)c2ccc(-c3ccc(-c4ccc(-c5ccc(-c6ccc(N(c7ccccc7)c7ccccc7)cc6)s5)c5nsnc45)s3)cc2)cc1",
    "photoluminescence quantum yield": 0.23
  },
  {
    "molecule": "COc1cc2c(cc1OC)C1=C3C(=O)N4C=Cc5cc(OC)c(OC)cc5C4=C3C(=O)N1C=C2",
    "photoluminescence quantum yield": 0.85
  },
  {
    "molecule": "CC(C)C1=c2c(c3[nH]cc(C(C)C)c3c3ccccc23)=[N+]2C1=Cc1c(C(C)C)c3c4ccccc4c4c(C(C)C)c[nH]c4c3n1[B-]2(F)F",
    "photoluminescence quantum yield": 0.63
  }
]

I: C(#Cc1ccccc1)C(C#Cc1ccccc1)=Cc1cccc(C=C(C#Cc2ccccc2)C#Cc2ccccc2)c1
II: CCCCCCOc1ccc(N(c2ccc(OCCCCCC)cc2)c2ccc(-c3sc(-c4ccc(N(c5ccc(OCCCCCC)cc5)c5ccc(OCCCCCC)cc5)cc4)c4nc(-c5ccc(C(=O)OC)cc5)c(-c5ccc(C(=O)OC)cc5)nc34)cc2)cc1
III: Cc1cc(C)c(C2=C3C=CC=[N+]3[B-]3(F)Oc4cc(O)cc5c6ccc(C)cc6c6cc2n3c6c45)c(C)c1 (configuration not stated)
IV: CN(C)c1ccc(C#Cc2ccc(C#Cc3ccc(C#Cc4ccccc4C#N)cc3C#N)cc2C#N)cc1
V: O=c1c2ccccc2c2c(C#C[Si](c3ccccc3)(c3ccccc3)c3ccccc3)c3c(=O)c4ccccc4c3c(C#C[Si](c3ccccc3)(c3ccccc3)c3ccccc3)c12
With regard to photoluminescence quantum yield, arrange the entries in ascending order, please. # output: labels, in the requested order
II, I, V, III, IV
(II: 0.026, I: 0.06, V: 0.09, III: 0.35, IV: 0.999)

A: CC1(C)CC(NCc2ccc3ccc4cccc5ccc2c3c45)CC(C)(C)N1
B: N#Cc1c(C#N)c2cc(Cl)c(Cl)cc2c2cc(Cl)c(Cl)cc12
Form field 'greater photoluminescence quantum yield' accepts A or B ; which applies? // caller expects the label of the chosen entry
A
(A: 0.08, B: 0.01)

###

- measurementNotes: photoluminescence quantum yield (fraction); solvent given as SMILES
- conditionDescription: in O
measureName: photoluminescence quantum yield

[
  {
    "compound": "C=CCNc1ccc2c(ccc3oc4cc(=[N+](C)C)ccc-4nc32)c1",
    "reportedResult": 0.009
  },
  {
    "compound": "COCCOCCOCCOCCOc1ccc(OCCOCCOCCOCCOC)c(C=O)c1",
    "reportedResult": 0.11
  }
]

1: CC[n+]1nc2cc3c4c(c2c2cc(F)ccc21)CCCN4CCC3
2: CCCCn1c(-c2ccc(-c3ccc(-c4ccc(-c5n(CCCC)c6cc(C)ccc6[n+]5CCCC)cc4)cc3)cc2)[n+](CCCC)c2ccc(C)cc21
Form field 'greater photoluminescence quantum yield' accepts 1 or 2 ; which applies? // caller expects the label of the chosen entry
2
